# Tested on: Zymoseptoria tritici (SEPTTR-184)
# Method Summary: Cyp51 dsRNA tile (fragment) foliar application bioassay (Example 6)
# Assay type: in vivo
# Cond: 1 day protectant; rate 50 ppm; average of 2 trials
Give Disease Control (%) SEPTTR-184 1DP for every item shown.
Give bare numbers, in %.

MgCyp51-T8: dsRNA tile of Zymoseptoria tritici Cyp51, 242 bp, location 1151-1392 (nucleic acid, listed as Zymoseptoria tritici) TTCTGCGCAAGGTCAAGTCTCCCATGCCCATCGAAGGTACGGCATACGTCATTCCAACCACCCACACTCTTCTGGCCGCTCCGGGCACAACGAGCCGCATGGACGAGCACTTTCCCGACTGCCTCCATTGGGAGCCGCATCGATGGGACGAGAGCCCGTCCGAGAAATACAAGCACCTGTCCCCGACGACTGCCCTAGGAAGCATCGCCGAGGAGAAAGAAGACTATGGCTACGGCCTGGTA; 65

Read the next record carefully.
Param item = YFP: non-target dsRNA control (YFP, yellow fluorescent protein coding region) (nucleic acid, double-stranded RNA; synthesized partial coding region) TGTAGAAATCCTTCAGCTCGGGGCCGTACTTGGCGAAGCACTGGGCGCCGTAGGTCAGGGTGGTCACCAGGGTGCTCCAGGGCACGGGCACATCGCCGGTGGTGCAGATGAACTGGGCATCCACCTTGCCCACGCTGGCATCGCCGTAGCCCTTGCCGCGGATGCTGAAGGTGTGGCCATCCACATTGCCCTCCATCTCCACCACGTAGGGGATCTTGCCGTGGAACAGCAGGGCGCCGCTGGAGCCCAT ; retrieve measured Disease Control (%) SEPTTR-184 1DP.
23
